tested on: U-251; assay: NCI tumour cell line growth inhibition, 48 h
Activity calls are given as the source filed them. No stated cut-off is given here; in the data, active = GI50 up to about 1.1 µM and inactive = higher.
Answer with one of the outcomes true (1) (active), false (0) (inactive)

- Molecule: "COC1(C(C)(C)C)C=C(C(C)(C)C)P(=O)(O)O1 (centres undefined)"
  Label value: "false (0)"
- Molecule: "Cc1c(N)c(C#N)c2n(C)c3ncccc3n2c1=O"
  Label value: "false (0)"
- Molecule: "O=[N+]([O-])c1cccnc1-n1cnc2ccccc21"
  Label value: "false (0)"

Inquiry: Which outcome was assigned to N/C(=N\Nc1ccc(Cl)cc1)c1cnccn1 in this test?
Reply text: false (0)

Inquiry: Which outcome was assigned to O/N=C1/CCCC/C1=C/C=C/c1ccccc1 in this test?
Reply text: false (0)

Inquiry: Which outcome was assigned to COc1cc2c(cc1OCCCCN1CCN(CCCCOc3cc4c(cc3OC)C(=O)N3CCC[C@H]3C=N4)CC1)N=C[C@@H]1CCCN1C2=O in this test?
Reply text: true (1)

Inquiry: Which outcome was assigned to O=c1c2ccccc2c(=O)c2c1c1[nH]c3ccccc3c1c1c(=O)c3ccccc3c(=O)c21 in this test?
Reply text: false (0)

Inquiry: Which outcome was assigned to CNc1cccnc1/C=N/N=C(/N)S in this test?
Reply text: false (0)

Inquiry: Which outcome was assigned to COC(=O)C1=CC2C(=O)OC1CC2C#N (centres undefined) in this test?
Reply text: false (0)

Inquiry: Which outcome was assigned to O=C(NCc1ccccc1)c1cnc(Cl)cn1 in this test?
Reply text: false (0)

Inquiry: Which outcome was assigned to CCN(CC)CC1CCCCN1CC(=O)N1CC(C)C(=O)Nc2ccccc21 (centres undefined) in this test?
Reply text: false (0)

Inquiry: Which outcome was assigned to Nc1nc(N)c2nnn(C[C@H]3CC[C@@H](CO)C3)c2n1 in this test?
Reply text: false (0)

###

GI50 for assorted compounds
test system: HCT-116; experiment: NCI tumour cell line growth inhibition, 48 h
Activity calls are given as the source filed them. No stated cut-off is given here; in the data, active = GI50 up to about 1.1 µM and inactive = higher.

Here are 5 compounds together with their reported answers.
- Compound: "COC(=O)C1=CC2C(=O)OC1CC2C#N (stereo not given)"
  Target system: "HCT-116"
  Value reported: "> 100 µM (inactive)"
- Compound: "CSC(=Nc1nnc(-c2ccc([N+](=O)[O-])cc2)s1)SC"
  Target system: "HCT-116"
  Value reported: "27.4 µM (inactive)"
- Compound: "CCOC(=O)c1ccc(-c2cc(C)[nH]n2)[nH]1"
  Target system: "HCT-116"
  Value reported: "> 100 µM (inactive)"
- Compound: "COc1cc(CCc2ccc(N)cc2)cc(OC)c1OC"
  Target system: "HCT-116"
  Value reported: "50.9 µM (inactive)"
- Compound: "COC1(C(C)(C)C)C=C(C(C)(C)C)P(=O)(O)O1 (stereo not given)"
  Target system: "HCT-116"
  Value reported: "> 100 µM (inactive)"

Inquiry: Item under review: [N-]=[N+]=NC[C@H]1OCO[C@H](CN=[N+]=[N-])[C@@H](OCCOCCCl)[C@@H]1OCCOCCCl . Reported GI50?
Reply text: > 100 µM (inactive)

Inquiry: Item under review: CCOP(=O)(CN1CCNCCN(CP(=O)(OCC)OCC)CC1)OCC . Reported GI50?
Reply text: > 100 µM (inactive)

Inquiry: Item under review: CN(C)C(=S)/N=c1\ss/c(=N\C(=S)N(C)C)n1C1CCCCC1 . Reported GI50?
Reply text: > 100 µM (inactive)

Inquiry: Item under review: Clc1cccc2[nH]ncc12 . Reported GI50?
Reply text: 66.7 µM (inactive)

Inquiry: Item under review: Cc1nc(C(N)=S)sc1C(=O)CC(=O)C(=O)Nc1nc2ccccc2[nH]1 . Reported GI50?
Reply text: > 100 µM (inactive)

Inquiry: Item under review: Cc1cc(S(=O)(=O)Nc2nc(N)n[nH]2)c(SCC(=O)O)cc1Cl . Reported GI50?
Reply text: > 10 µM (inactive)

Inquiry: Item under review: CC(C)/C(Cl)=N\OC(=O)Nc1ccccc1F . Reported GI50?
Reply text: 8.45 µM (inactive)

Inquiry: Item under review: CCn1c(=O)ccc2ccc(N(CCO)CCO)nc21 . Reported GI50?
Reply text: > 100 µM (inactive)

Inquiry: Item under review: CC1CCCc2c(CC3CC(=O)NC(=O)C3)n[nH]c21 (stereo not given) . Reported GI50?
Reply text: > 100 µM (inactive)

Inquiry: Item under review: CN(C)C(=S)/N=C1\SC(=N\c2ccccc2)/C(=N/c2ccccc2)N1c1ccc([N+](=O)[O-])cc1 . Reported GI50?
Reply text: > 100 µM (inactive)

Inquiry: Item under review: Cc1cc2nc(C=C(C(F)(F)F)C(F)(F)F)oc2cc1C . Reported GI50?
Reply text: 1.38 µM (inactive)

Inquiry: Item under review: O=CC1=CCCC2(C1)OCCO2 . Reported GI50?
Reply text: > 100 µM (inactive)

Inquiry: Item under review: CC(=O)O[C@@]1(C)[C@@H](C)C(=O)O[C@@H]2CCN3CC=C(COC(=O)[C@]1(C)O)[C@H]23 . Reported GI50?
Reply text: > 100 µM (inactive)

Inquiry: Item under review: CC1(C)C(=O)N(O)C(C)(C)N1O . Reported GI50?
Reply text: > 10 µM (inactive)

Inquiry: Item under review: C#C[C@]1(O)CC[C@H]2[C@@H]3CCc4cc(O)ccc4[C@H]3CC[C@@]21C [ETHINYL ESTRADIOL] . Reported GI50?
Reply text: 23 µM (inactive)

Inquiry: Item under review: Cc1ccc(NC(=O)C(=O)C2C(=O)NC(=O)NC2=O)c(C)c1 . Reported GI50?
Reply text: > 100 µM (inactive)

Inquiry: Item under review: CCCCCCCC(=O)OCC1OC(n2cc(F)c(=O)[nH]c2=O)C(NC(=O)OCc2ccccc2)C(O)C1O (stereo not given) . Reported GI50?
Reply text: > 100 µM (inactive)

Inquiry: Item under review: O=c1[nH]cnc2c1ncn2[C@@H]1C[C@H]1CO . Reported GI50?
Reply text: > 100 µM (inactive)

Inquiry: Item under review: CCOC(=O)N/N=C(/N)c1cccc([N+](=O)[O-])c1 . Reported GI50?
Reply text: > 100 µM (inactive)

Inquiry: Item under review: O=c1n(CCO)nc2n1CCCN2 . Reported GI50?
Reply text: > 100 µM (inactive)
